- ASSAY_OVERVIEW: clinical
- PROTOCOL_CONDITIONS: human, in vivo, po

{"COMPOUND_STRUCTURE": "CO[C@H]1/C=C/O[C@@]2(C)Oc3c(C)c(O)c4c(c3C2=O)C2=NC3(CCN(CC(C)C)CC3)NC2=C(NC(=O)/C(C)=C\\C=C\\[C@H](C)[C@H](O)[C@@H](C)[C@@H](O)[C@@H](C)[C@H](OC(C)=O)[C@@H]1C)C4=O", "UOM": "ng/mL", "Cmax": 268}

###

- ASSAY_OVERVIEW: Cmax in human at 300 mg, po QD
- PROTOCOL_CONDITIONS: in vivo
METRIC_NAME: Cmax (ng/mL)

{"COMPOUND_STRUCTURE": "CO[C@H]1/C=C/O[C@@]2(C)Oc3c(C)c(O)c4c(c3C2=O)C2=NC3(CCN(CC(C)C)CC3)NC2=C(NC(=O)/C(C)=C\\C=C\\[C@H](C)[C@H](O)[C@@H](C)[C@@H](O)[C@@H](C)[C@H](OC(C)=O)[C@@H]1C)C4=O", "METRIC_NAME": "Cmax", "ASSAY_RESULT": 313}
